Test system: H-2 L^d:Ig (DimerX) protein
Sequence (P01897 25-298 limits assumed): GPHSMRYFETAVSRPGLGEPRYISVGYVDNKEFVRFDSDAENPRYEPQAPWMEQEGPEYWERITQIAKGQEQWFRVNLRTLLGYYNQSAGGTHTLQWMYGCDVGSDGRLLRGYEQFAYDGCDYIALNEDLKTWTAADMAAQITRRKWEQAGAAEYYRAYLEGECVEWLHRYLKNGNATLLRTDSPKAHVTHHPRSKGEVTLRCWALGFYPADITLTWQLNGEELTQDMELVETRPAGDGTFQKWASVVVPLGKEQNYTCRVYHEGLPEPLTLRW
Sequence (P01887 21-119, further chain): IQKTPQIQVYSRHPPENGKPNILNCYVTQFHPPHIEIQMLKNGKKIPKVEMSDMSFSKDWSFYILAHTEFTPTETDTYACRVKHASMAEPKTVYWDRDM
Assay: SPR kinetics of synthetic peptide binding to immobilized DimerX
Parameters: species or system Mouse
Settings: SPR, DimerX immobilized on carboxylated sensor chip by EDC/NHS, peptide in PBS, neutral pH, 25°C
Kindly state association constant (ka) for each of the entries shown.

For orientation, consider the following solved cases.
>>> recorded_result("EFCLGGGLC [P6.5, synthetic peptide … derived from the COOH-terminal region of cysteine proteinase B of L. (L.) amazonensis]")
"6.40 × 10^7 M^−1 S^−1"
>>> recorded_result("VEQVICFD [P1.10, synthetic peptide VEQVICFD derived from the COOH-terminal region of cysteine proteinase B of L. (L.) amazonensis]")
"1.10 × 10^8 M^−1 S^−1"
>>> recorded_result("CLGGGLCL [P6.4, synthetic peptide CLGGGLCL derived from the COOH-terminal region of cysteine proteinase B of L. (L.) amazonensis]")
"1.20 × 10^7 M^−1 S^−1"

Okay, next one:
IN: Request: association constant (ka), test system H-2 L^d:Ig (DimerX) protein, entry MVEQVICFD [P1.9, synthetic peptide … derived from the COOH-terminal region of cysteine proteinase B of L. (L.) amazonensis]
OUT: 1.57 × 10^6 M^−1 S^−1
